target: Human recombinant Rho kinase (ROKα/ROCK-II, aa 11-552) (Homo sapiens, UniProt O75116); construct: ROKα/ROCK-II, (aa 11-552), human active, catalog #14-451; assay: [γ-33P]-ATP-based Rho kinase assay; details: mean ± SEM; 100 μM ATP, Long S6 substrate peptide 30 μM, 30 min at 30° C.; read-out: Rho Kinase Inhibition Constants (IC50), [γ-33P]-ATP-Based Assay
Sequence (O75116 11-552): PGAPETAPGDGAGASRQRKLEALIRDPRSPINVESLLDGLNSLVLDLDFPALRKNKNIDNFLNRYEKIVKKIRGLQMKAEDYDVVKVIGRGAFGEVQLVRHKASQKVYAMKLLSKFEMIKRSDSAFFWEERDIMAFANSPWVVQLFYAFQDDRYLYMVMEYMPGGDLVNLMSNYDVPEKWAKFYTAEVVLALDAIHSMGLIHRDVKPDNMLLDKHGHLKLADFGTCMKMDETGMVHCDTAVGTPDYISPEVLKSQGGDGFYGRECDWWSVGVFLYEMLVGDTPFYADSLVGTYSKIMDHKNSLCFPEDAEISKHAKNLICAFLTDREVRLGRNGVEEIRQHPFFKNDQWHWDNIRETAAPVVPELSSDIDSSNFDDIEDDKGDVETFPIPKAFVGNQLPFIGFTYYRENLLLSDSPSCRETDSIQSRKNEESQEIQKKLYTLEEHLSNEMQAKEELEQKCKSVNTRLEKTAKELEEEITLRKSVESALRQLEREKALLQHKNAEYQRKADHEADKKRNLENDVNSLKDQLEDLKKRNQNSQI
MEASURED METRIC: IC50 (nM)

These solved cases illustrate the format of a correct answer.
{"columns": ["MOLECULE", "SYSTEM UNDER TEST", "MEASURED METRIC", "MEASURE UNIT", "RECORDED MEASUREMENT"],
 "data": [
  ["CC1CNCCN1S(=O)(=O)c1cccc2cnccc12 (stereo not drawn) [B, reference compound]", "Human recombinant Rho kinase (ROKα/ROCK-II, aa 11-552) (Homo sapiens, UniProt O75116)", "IC50", "nM", 2340],
  ["Cc1cncc2cccc(S(=O)(=O)N3CCCN(C)C(C)C3)c12 (stereo not drawn)", "Human recombinant Rho kinase (ROKα/ROCK-II, aa 11-552) (Homo sapiens, UniProt O75116)", "IC50", "nM", 3460]
]}

[a] Cc1cncc2cccc(S(=O)(=O)N3CCNC(C)C3)c12 (stereo not drawn)
[b] Cc1cncc2cccc(S(=O)(=O)N3CCCN(C)CC3C)c12 (stereo not drawn)
[c] Cc1cncc2cccc(S(=O)(=O)N3CCCNC(C)(C)C3)c12
[d] CC1CN(S(=O)(=O)c2cccc3cnccc23)CCN1 (stereo not drawn) [I, reference compound]
[ask] Give the ascending ranking of the items by reported IC50. # list labels per requested ordering
[reply] b, c, a, d
(b: 485 nM, c: 1510 nM, a: 2630 nM, d: 6700 nM)
